target: T1, PSMA Fab; experiment: clonal phage ELISA on biotinylated PSMA Fab captured on neutravidin, anti-M13 HRP detection, wells pre-incubated with saturating PSMA antigen as competitor
T1 construct: In the panning ELISA the PSMA Fab was biotinylated and captured on neutravidin coated plates; also called Anti-PSMA Fab; 006 PSMA Fab
Measurement Type: Phage binding ELISA signal, Anti-PSMA Fab with PSMA antigen
Just the number, please, no unit attached.

Observe how each entry below is paired with its result.
Binder	Data Value
SSVMCIPQWMCSGF [Phage-3317]	0.0899
LPIMCKPQWMCNGF [Phage-3318]	0.08

Ask: Fill blank: measured Phage binding ELISA signal, Anti-PSMA Fab with PSMA antigen of the binder WVIKCVPSWMCAGL [Phage-3321] is ____.
Reply: 0.0907

Ask: Subsequent entry: VGHVCIPSWMCDGM [Phage-3320]
Reply: 0.0683
